# Measured on: EPHB1 (UniProt P54762)
# Sequence (P54762 whole entry, looked up): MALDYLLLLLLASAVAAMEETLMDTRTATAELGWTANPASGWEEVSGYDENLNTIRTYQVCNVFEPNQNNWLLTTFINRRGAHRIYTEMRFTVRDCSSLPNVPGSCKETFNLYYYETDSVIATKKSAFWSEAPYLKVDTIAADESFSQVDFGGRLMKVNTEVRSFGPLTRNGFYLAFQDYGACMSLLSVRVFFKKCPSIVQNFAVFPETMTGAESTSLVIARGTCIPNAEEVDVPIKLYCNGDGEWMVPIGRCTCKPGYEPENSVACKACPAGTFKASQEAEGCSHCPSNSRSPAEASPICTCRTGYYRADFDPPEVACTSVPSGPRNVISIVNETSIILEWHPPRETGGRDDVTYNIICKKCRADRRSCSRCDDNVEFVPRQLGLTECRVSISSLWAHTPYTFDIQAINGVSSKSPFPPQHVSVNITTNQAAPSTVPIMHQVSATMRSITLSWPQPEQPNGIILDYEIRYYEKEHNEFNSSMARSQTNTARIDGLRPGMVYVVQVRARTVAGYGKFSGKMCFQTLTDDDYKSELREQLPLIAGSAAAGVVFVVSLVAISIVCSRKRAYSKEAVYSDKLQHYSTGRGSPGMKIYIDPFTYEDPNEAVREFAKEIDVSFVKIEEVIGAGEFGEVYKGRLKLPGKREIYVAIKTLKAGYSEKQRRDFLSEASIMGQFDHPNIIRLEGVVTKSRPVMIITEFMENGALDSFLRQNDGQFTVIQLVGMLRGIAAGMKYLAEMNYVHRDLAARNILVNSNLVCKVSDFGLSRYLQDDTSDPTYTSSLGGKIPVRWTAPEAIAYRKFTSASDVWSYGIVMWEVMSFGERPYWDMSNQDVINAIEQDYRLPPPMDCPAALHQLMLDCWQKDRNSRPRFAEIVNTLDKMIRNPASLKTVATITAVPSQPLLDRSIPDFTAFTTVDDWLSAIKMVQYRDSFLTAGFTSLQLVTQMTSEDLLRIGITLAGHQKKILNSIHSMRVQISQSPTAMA
# Test description: phosphorylation enrichment, bacterial display (enrichment ratio); higher = better substrate or ligand; peptides without Tyr show the background
Param threshold (0.7) applies to phosphorylation enrichment; output Met when value >= threshold, Not met when value < threshold.

Some solved cases for reference:
INSERT INTO results (primary_sequence, class_name) VALUES
  ('ESMQSYDLDYP [UNC13B_Y243_D238E]', 'Not met'),
  ('WIPIQDPIISE [NOG_Y222_Y222D]', 'Not met');

Exercise: Tell me whether phosphorylation enrichment is at least 0.7 here: KNNSIYVVANI [VNN1_Y134]
Key: Met

Exercise: Tell me whether phosphorylation enrichment is at least 0.7 here: VKALKYKSMKI [ITGA11_Y1098_L1093V]
Key: Not met

Exercise: Tell me whether phosphorylation enrichment is at least 0.7 here: SHSMRYFFTAV [HLA-C_Y31_D33F]
Key: Not met

Exercise: Tell me whether phosphorylation enrichment is at least 0.7 here: GQSKGYRPKLY [SIPA1L3_Y1376]
Key: Not met

Exercise: Tell me whether phosphorylation enrichment is at least 0.7 here: RSAGKYDVFFI [MECP2_Y120_L124F_YF]
Key: Not met

Exercise: Tell me whether phosphorylation enrichment is at least 0.7 here: SFTDPYAQPSL [KMT2D_Y2378_P2382S_YF]
Key: Not met

Exercise: Tell me whether phosphorylation enrichment is at least 0.7 here: CPSLLYSPVSS [CAMKK2_Y128_P127L]
Key: Met

---

# Measured on: c-Src SH2
# Test description: SH2 binding enrichment of the phosphorylated peptide, bacterial display (enrichment ratio); higher = better substrate or ligand; peptides without Tyr show the background
Reported SH2 binding enrichment maps to class as: zone 1 = under 0.5, zone 2 = from 0.5 up to 0.6, zone 3 = 0.6 and over

Some solved cases for reference:
INSERT INTO measurements (primary_sequence, measured_on, class_name) VALUES
  ('FSDQVYRQHRK [TH_Y230_R233H]', 'c-Src SH2', 'zone 3'),
  ('HSLLQYGGSAN [ANK1_Y624_R619H]', 'c-Src SH2', 'zone 1'),
  ('QLHREYCLSPR [HJURP_Y445]', 'c-Src SH2', 'zone 3');

Exercise: Bin? KIKGWYEKCEP [KRT26_Y119]
Key: zone 3

Exercise: Bin? LGSWTYTKTVS [ROS1_Y144]
Key: zone 1

Exercise: Bin? ATQDNYVLEVR [PTPRZ1_Y2179_D2178N]
Key: zone 3

Exercise: Bin? TESNNYIYKTL [FAM83B_Y637]
Key: zone 2

Exercise: Bin? FGGLRCGFGVL [KRTAP20-2_Y13_Y13C_YF]
Key: zone 1

Exercise: Bin? VRFMEYETQVK [TARDBP_Y155_T153M]
Key: zone 2

Exercise: Bin? FHKALYTVRSY [PDE6C_Y266]
Key: zone 1

Exercise: Bin? NLTVNYKKNLI [SQOR_Y259]
Key: zone 1

---

# Measured on: Fyn (UniProt P06241)
# Sequence (P06241 whole entry, looked up): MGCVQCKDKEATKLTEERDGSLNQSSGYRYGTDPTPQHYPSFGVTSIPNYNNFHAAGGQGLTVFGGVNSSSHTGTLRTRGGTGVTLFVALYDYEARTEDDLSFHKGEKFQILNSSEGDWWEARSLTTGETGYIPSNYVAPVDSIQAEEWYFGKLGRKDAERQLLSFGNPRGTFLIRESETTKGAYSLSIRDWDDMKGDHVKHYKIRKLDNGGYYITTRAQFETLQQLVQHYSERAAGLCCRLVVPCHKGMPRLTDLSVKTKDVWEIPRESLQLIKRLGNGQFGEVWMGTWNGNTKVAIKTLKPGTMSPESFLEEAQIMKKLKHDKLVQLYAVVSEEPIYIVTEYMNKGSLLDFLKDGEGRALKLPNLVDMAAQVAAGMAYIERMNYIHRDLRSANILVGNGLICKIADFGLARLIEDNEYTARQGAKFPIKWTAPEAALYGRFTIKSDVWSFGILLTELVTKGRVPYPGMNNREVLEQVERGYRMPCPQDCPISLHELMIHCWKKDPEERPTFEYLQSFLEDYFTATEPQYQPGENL
# Test description: phosphorylation enrichment, bacterial display (enrichment ratio); higher = better substrate or ligand; peptides without Tyr show the background
Reported property: phosphorylation enrichment
Reply with the value as a number alone.

Worked examples, 10 sequences total:
INSERT INTO assay_data (primary_sequence, test_value) VALUES
  ('EQMLEYMGQLQ [CFAP45_Y289_E291G]', 0.542),
  ('LANNEYFFRVC', 0.74),
  ('IIGNGYYFRVF [MYBPC3_Y1135]', 0.327),
  ('PELINYHQHYS [BTK_Y361_N365Y]', 0.662),
  ('VHSGTYQVTVR [MYBPC3_Y1043]', 0.448),
  ('AHAGEYGAGAL [HBA1_Y25_E28G]', 0.405),
  ('PLGVPYLDKPP [JMJD7_Y31_A28G]', 0.679),
  ('KLIETYSSKNF [PLP1_Y50_F51S_YF]', 0.504),
  ('GHNDVYISEHV [GRIN2A_Y1423]', 0.416),
  ('ERWLKYFPNEQ [HS3ST5_Y244_I247N]', 0.62);

# next sequence below
Exercise: Quick one: phosphorylation enrichment of TKVVHYRKWIK [KLK2_Y249] ?
Key: 0.382

---

# Measured on: FGFR1 (UniProt P11362)
# Sequence (P11362 whole entry, looked up): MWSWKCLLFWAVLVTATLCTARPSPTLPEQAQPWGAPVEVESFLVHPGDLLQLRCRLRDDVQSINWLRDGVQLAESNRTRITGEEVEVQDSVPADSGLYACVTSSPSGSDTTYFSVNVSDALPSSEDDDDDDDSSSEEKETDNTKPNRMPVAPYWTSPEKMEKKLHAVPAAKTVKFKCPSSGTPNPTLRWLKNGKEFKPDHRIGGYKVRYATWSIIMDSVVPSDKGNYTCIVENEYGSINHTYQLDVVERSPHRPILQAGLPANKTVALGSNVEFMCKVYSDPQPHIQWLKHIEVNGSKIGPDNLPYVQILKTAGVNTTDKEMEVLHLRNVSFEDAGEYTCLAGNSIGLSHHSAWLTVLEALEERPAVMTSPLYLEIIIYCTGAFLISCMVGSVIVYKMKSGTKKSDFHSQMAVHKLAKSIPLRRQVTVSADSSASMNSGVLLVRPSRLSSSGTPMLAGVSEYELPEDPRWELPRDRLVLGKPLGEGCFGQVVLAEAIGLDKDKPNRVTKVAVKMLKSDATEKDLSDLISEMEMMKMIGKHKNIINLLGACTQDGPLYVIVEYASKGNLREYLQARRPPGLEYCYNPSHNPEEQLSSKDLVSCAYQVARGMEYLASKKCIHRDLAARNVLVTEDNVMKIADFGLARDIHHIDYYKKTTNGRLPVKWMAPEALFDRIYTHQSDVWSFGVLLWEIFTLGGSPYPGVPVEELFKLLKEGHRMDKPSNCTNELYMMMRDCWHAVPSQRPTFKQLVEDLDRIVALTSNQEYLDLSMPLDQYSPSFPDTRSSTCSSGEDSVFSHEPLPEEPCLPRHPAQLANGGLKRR
# Test description: phosphorylation enrichment, bacterial display (enrichment ratio); higher = better substrate or ligand; peptides without Tyr show the background
Reported property: phosphorylation enrichment
Reply with the value as a number alone.

Worked examples, 2 sequences total:
INSERT INTO assay_data (primary_sequence, test_value) VALUES
  ('GCRSKYVRLWG [KCNQ1_Y184_G186R]', 0.462),
  ('GNLLIYTEFGK [HGD_Y166]', 0.56);

# next sequence below
Exercise: Quick one: phosphorylation enrichment of AVAFLYYKSIG [ADGRL4_Y301_V300L] ?
Key: 0.566

---

# Measured on: Hck (UniProt P08631)
# Sequence (P08631 whole entry, looked up): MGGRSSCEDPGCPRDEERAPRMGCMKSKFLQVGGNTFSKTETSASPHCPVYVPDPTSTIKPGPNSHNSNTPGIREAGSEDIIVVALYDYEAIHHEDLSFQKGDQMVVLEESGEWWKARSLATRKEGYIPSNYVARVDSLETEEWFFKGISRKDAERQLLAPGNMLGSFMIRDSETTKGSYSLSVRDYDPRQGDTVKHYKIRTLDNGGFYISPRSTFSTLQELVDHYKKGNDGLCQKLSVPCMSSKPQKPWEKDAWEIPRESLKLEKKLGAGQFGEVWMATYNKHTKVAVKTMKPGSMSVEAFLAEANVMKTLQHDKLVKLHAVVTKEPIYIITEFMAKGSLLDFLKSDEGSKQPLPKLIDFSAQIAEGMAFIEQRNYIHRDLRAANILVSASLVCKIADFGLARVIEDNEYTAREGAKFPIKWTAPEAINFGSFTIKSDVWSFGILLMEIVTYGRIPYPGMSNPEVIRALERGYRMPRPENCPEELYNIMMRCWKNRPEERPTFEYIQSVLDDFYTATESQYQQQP
# Test description: phosphorylation enrichment, bacterial display (enrichment ratio); higher = better substrate or ligand; peptides without Tyr show the background
Catalogue of phosphorylation enrichment readings, one per entry.
Reply with the value as a number alone.

Worked examples, 2 sequences total:
INSERT INTO assay_data (primary_sequence, reported_property, test_value) VALUES
  ('RSAGKYDVFFI [MECP2_Y120_L124F_YF]', 'phosphorylation enrichment', 0.642),
  ('FSNPAYYVLEG [INPPL1_Y986_N982S]', 'phosphorylation enrichment', 0.778);

# next sequence below
Exercise: Quick one: phosphorylation enrichment of VQQVIYATRAL [MYH7_Y422_G425R] ?
Key: 8.57

---

# Measured on: Fyn (UniProt P06241)
# Test description: phosphorylation enrichment, bacterial display (enrichment ratio); higher = better substrate or ligand; peptides without Tyr show the background
Catalogue of phosphorylation enrichment readings, one per entry.
Reply with the value as a number alone.

Worked examples, 2 sequences total:
INSERT INTO results (primary_sequence, measured_on, test_value) VALUES
  ('YRIDHYLGKEM [G6PD_Y202]', 'Fyn (UniProt P06241)', 0.757),
  ('KSPGEYVNIEF [IRS1_Y896]', 'Fyn (UniProt P06241)', 0.49);

# next sequence below
Exercise: Quick one: phosphorylation enrichment of TLNVRYESVQA [CEACAM7_Y236] ?
Key: 0.434

---

# Measured on: Jak2 (UniProt O60674)
# Sequence (O60674 whole entry, looked up): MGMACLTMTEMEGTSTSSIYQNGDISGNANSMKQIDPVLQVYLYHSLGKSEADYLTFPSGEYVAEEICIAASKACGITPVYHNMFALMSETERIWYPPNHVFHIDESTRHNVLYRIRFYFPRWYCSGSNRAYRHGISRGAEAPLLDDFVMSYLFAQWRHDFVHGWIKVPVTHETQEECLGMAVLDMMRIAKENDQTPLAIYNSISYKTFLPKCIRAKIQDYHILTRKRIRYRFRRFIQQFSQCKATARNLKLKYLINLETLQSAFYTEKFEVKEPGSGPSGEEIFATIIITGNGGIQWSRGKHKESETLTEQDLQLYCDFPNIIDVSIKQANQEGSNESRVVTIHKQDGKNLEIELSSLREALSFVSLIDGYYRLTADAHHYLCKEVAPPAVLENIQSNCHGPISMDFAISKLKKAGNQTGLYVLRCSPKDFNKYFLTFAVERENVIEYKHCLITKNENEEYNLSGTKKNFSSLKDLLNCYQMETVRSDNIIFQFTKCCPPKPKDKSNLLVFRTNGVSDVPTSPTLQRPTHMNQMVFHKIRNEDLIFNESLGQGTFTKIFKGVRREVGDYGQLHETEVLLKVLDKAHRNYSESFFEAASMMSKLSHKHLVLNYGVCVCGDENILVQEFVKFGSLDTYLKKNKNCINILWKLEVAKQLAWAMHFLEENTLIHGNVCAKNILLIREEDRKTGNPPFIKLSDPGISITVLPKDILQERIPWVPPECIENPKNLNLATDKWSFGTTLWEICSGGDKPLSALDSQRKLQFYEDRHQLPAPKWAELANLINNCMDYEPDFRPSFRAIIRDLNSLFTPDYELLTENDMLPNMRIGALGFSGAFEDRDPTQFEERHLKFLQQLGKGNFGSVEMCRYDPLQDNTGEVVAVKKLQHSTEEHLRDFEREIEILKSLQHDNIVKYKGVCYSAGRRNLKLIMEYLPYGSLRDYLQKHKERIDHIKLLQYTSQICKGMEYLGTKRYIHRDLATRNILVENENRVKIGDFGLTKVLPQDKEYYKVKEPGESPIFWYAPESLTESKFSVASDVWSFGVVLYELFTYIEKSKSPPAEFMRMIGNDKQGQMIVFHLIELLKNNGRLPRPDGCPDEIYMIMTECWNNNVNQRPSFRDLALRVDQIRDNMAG
# Test description: phosphorylation enrichment, bacterial display (enrichment ratio); higher = better substrate or ligand; peptides without Tyr show the background
Reported property: phosphorylation enrichment
Reply with the value as a number alone.

INSERT INTO results (primary_sequence, test_value) VALUES
  ('MSSHHCDFKKF [ZNF445_Y428_Y428C_YF]', 0.519),
  ('VASMFYTLVIP [OR8K3_Y277_I275M]', 1.51),
  ('MSSLFYANTLF [HOXB7_Y6_YF]', 0.859),
  ('LQEQNYLAVDS [FAM114A1_Y115]', 1.39);

Exercise: Quick one: phosphorylation enrichment of SPPEVYAIMRG [NTRK1_Y757_C752S] ?
Key: 0.718

Exercise: Quick one: phosphorylation enrichment of KAESWYQTKYE [KRT75_Y342_E337K] ?
Key: 0.471

Exercise: Quick one: phosphorylation enrichment of KGLMPYGQPRP [SRRT_Y798_Q793K] ?
Key: 0.426

Exercise: Quick one: phosphorylation enrichment of ADNSAYLMGLN [MYH7_Y386_K383N] ?
Key: 1.11

Exercise: Quick one: phosphorylation enrichment of VSFDEYRFRSF [CFTR_Y515_V520F_YF] ?
Key: 1.11

Exercise: Quick one: phosphorylation enrichment of CPSLLYSPVSS [CAMKK2_Y128_P127L] ?
Key: 1.28

---

# System: c-Src
# Test description: phosphorylation enrichment, bacterial display (enrichment ratio); higher = better substrate or ligand; peptides without Tyr show the background
Reported property: phosphorylation enrichment
Reply with the value as a number alone.

Exercise: Quick one: phosphorylation enrichment of WASSSYRETPS [SORBS1_Y79_R74W] ?
Key: 0.362

Exercise: Quick one: phosphorylation enrichment of SKKSTYRALLD [GANC_Y43_Q44R] ?
Key: 0.385

Exercise: Quick one: phosphorylation enrichment of DVVKDYAFVHM [RBM14_Y114] ?
Key: 0.466

Exercise: Quick one: phosphorylation enrichment of KLSFSYGRALQ [ALDOB_Y302] ?
Key: 0.417

Exercise: Quick one: phosphorylation enrichment of FSDQVYRQHRK [TH_Y230_R233H] ?
Key: 0.452

Exercise: Quick one: phosphorylation enrichment of AKVKPYINGTS [IBTK_Y1064_V1065I] ?
Key: 0.294

Exercise: Quick one: phosphorylation enrichment of LLSVAYKNVVG [YWHAG_Y49] ?
Key: 0.418

Exercise: Quick one: phosphorylation enrichment of TRSFKCLLLSM [NF1_Y491_Y491C_YF] ?
Key: 0.4

Exercise: Quick one: phosphorylation enrichment of REIHDYIKHLG [UNC13C_Y308_D304E] ?
Key: 1.02

Exercise: Quick one: phosphorylation enrichment of ALWYIYSHTRS [ENG_Y614] ?
Key: 0.423

Exercise: Quick one: phosphorylation enrichment of TEQDPYNSIVR [MMUT_Y364_N366S] ?
Key: 0.593

Exercise: Quick one: phosphorylation enrichment of PFSNPYENSLI [EPOR_Y489_YF] ?
Key: 1.01

Exercise: Quick one: phosphorylation enrichment of DPLLTYLFPPK [LMNA_Y481_R482L] ?
Key: 3.12

Exercise: Quick one: phosphorylation enrichment of HYEFKYVINAI [MAOA_Y268_C266F] ?
Key: 0.536

Exercise: Quick one: phosphorylation enrichment of DLQDEYDFKRK [STAT1_Y170_C174R] ?
Key: 0.476

Exercise: Quick one: phosphorylation enrichment of VAFLYYKSIGP [ADGRL4_Y302_V300L] ?
Key: 0.392

Exercise: Quick one: phosphorylation enrichment of PFRQWYESHFA [RPS8_Y113_YF] ?
Key: 0.972

Exercise: Quick one: phosphorylation enrichment of SWDKRYCEAGC [ITGA2B_Y197_F202C] ?
Key: 0.357

Exercise: Quick one: phosphorylation enrichment of EEGRVYVFRLS [ITGAE_Y549_YF] ?
Key: 0.625

Exercise: Quick one: phosphorylation enrichment of YCRIMYDIFPF [INTS13_Y67] ?
Key: 2.98

Exercise: Quick one: phosphorylation enrichment of QDGYSYLSRQM [LDLR_Y847_P848L] ?
Key: 0.464

Exercise: Quick one: phosphorylation enrichment of RPDSPYSRPHD [DOK2_Y271] ?
Key: 0.372

Exercise: Quick one: phosphorylation enrichment of MALDIYRASYY [ALK_Y1278_R1275L] ?
Key: 1.76

Exercise: Quick one: phosphorylation enrichment of SVGGCYEQLFV [MC4R_Y41_D37V] ?
Key: 1.24
